target: HLA-A*02:12; assay: IEDB peptide-MHC binding, purified MHC/direct/fluorescence; filed as Kd, often an IC50 or EC50 that approximates it; bounds were set here for any values at or beyond the usual limits of such assays; conditions: source organism: Kurkino virus

{"ITEM_SEQUENCE": "SLYSGFPSL", "Kd": "≤ 1 nM"}

====

Below is a list of entries, each paired with its recorded pKd value.
biological target: HLA-B*15:01; assay: IEDB peptide-MHC binding, purified MHC/direct/fluorescence; filed as Kd, often an IC50 or EC50 that approximates it; bounds were set here for any values at or beyond the usual limits of such assays; conditions: source organism: Giardia lamblia ATCC 50803
pKd: −log10 of the molar value.

{"ITEM_SEQUENCE": "MTFPLHFRS", "pKd": "≤ 4.70"}
{"ITEM_SEQUENCE": "ETKKRMDYF", "pKd": "≤ 4.70"}
{"ITEM_SEQUENCE": "DIIRAHPWF", "pKd": 4.78}
{"ITEM_SEQUENCE": "SYPPPPASF", "pKd": "≤ 5.00"}
